Cited source: patent US9868742B2

Test: Compound solubility in water
Format: physicochemical
MEASURED ATTRIBUTE: log10 solubility (log10 of the value in µg/mL)

COMPOUND	log10 solubility
Cc1cc(-c2ccc(F)cc2C#N)nn2c(C(=O)N[C@@H](C3CC3)C(F)(F)F)cnc12	0.08
Cc1cc(-c2cccc(C(N)=O)c2)nc2c(C(=O)NC(C3CC3)C(F)(F)F)csc12 (centres unmarked)	-0.40
CCC(NC(=O)c1ncc2c(C)cc(C)nn12)c1ccccc1 (centres unmarked)	1.47
Cc1cc(-c2ccccn2)nc2c(C(=O)NC(C3CC3)C(F)(F)F)nsc12 (centres unmarked)	-0.15
Cc1cc(-c2cccc(F)c2C#N)nn2c(C(=O)N[C@@H](C)C3CC3)cnc12	-0.30
